# Assay method text: RAM signaling pathway blockade in yeast – S. cerevisiae, Pdr1DBD-CYC8 efflux-inhibited sensitized strain, primary screen (AID 1298);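 further: 0% = DMSO untreated cells without growth and 100% = 10 µM 1-NA-PP1 full growth; higher means more yeast growth rescued from 5-FOA killing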
# Conditions used: S. cerevisiae cbk1-as DSE1-URA3 strain, 5-FOA growth OD615, 2 d; at 50 µM; stronger effect = higher value
// values below are reported RAM network inhibition
Endpoint: RAM network inhibition (%)

[[record]]
compound = "C=C(C)CSc1nc2c(c(=O)[nH]c(=O)n2C)n1CCC(C)C"
numeric_result = 1.85

[[record]]
compound = "Clc1ccc(-c2nnn(Cc3nc4ccccc4s3)n2)cc1"
numeric_result = 2.46

[[record]]
compound = "CC1(C)Nc2ccccc2N(CC(=O)N2CCCCC2)C1=O"
numeric_result = 0.97

[[record]]
compound = "COc1ccc(-c2nnc(NC(=O)c3cc(Cl)ccc3Cl)o2)cc1"
numeric_result = 8.05

[[record]]
compound = "CC1CCCC(C)N1c1nnc(N)s1 (stereo unspecified)"
numeric_result = 0.17

[[record]]
compound = "CCOCCOC(=O)C1=C(C)NC2=C(C(=O)CC(c3cccs3)C2)C1c1ccsc1 (stereo unspecified)"
numeric_result = 6.89


Measured values drawn from PubChem BioAssay for this set.
